Sourced from patent US7615564B2

Item-by-item account of pIC50
Biological target: Recombinant Rho kinase (fused protein composed of bovine Rho kinase catalytic region and glutathione S-transferase) (Bos taurus, UniProt Q28021)
Construct: fused protein composed of bovine Rho kinase catalytic region and glutathione S-transferase; glutathione S-transferase (GST)
Sequence (Q28021 92-354 limits assumed): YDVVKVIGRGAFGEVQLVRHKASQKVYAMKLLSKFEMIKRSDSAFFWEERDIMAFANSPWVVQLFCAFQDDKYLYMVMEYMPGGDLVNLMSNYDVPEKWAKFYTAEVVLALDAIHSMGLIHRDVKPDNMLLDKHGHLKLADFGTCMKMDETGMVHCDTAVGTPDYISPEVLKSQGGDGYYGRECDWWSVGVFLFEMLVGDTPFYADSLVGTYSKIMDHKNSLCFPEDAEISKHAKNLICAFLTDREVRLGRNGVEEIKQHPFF
Assay: Rho kinase inhibitory activity (phosphorylation of S6 231-239 substrate with γ32P-ATP)
Conditions: concentration inhibiting substrate phosphorylation by 50%
// scale note: pIC50 = -log10(conc_M); give the bare number

compound="O=[N+]([O-])c1cccc(CN2CCCC(Nc3cccc4cnccc34)C2)c1 (stereo not shown)" reported_metric=pIC50 observed_result=5.72

# get_value(readout='pIC50', item= Nc1cccc(CN2CCCC(Nc3cccc4cnccc34)C2)c1 (stereo not shown) )
6.51

# get_value(readout='pIC50', item= c1cc(NC2CCCN(Cc3cc[nH]c3)C2)c2ccncc2c1 (stereo not shown) )
6.17

# get_value(readout='pIC50', item= Clc1cccc(Cl)c1CN1CCCC(Nc2cccc3cnccc23)C1 (stereo not shown) )
5.92

# get_value(readout='pIC50', item= c1coc(CN2CCCC(Nc3cccc4cnccc34)C2)c1 (stereo not shown) )
6.70

# get_value(readout='pIC50', item= O=[N+]([O-])c1ccc(CN2CCC(Nc3cccc4cnccc34)C2)cc1 (stereo not shown) )
6.18

# get_value(readout='pIC50', item= Nc1cc(Cl)ccc1CN1CCC(Nc2cccc3cnccc23)C1 (stereo not shown) )
6.62

# get_value(readout='pIC50', item= Nc1ccc(CN2CCC(Nc3cccc4cnccc34)C2)cc1 (stereo not shown) )
6.64

# get_value(readout='pIC50', item= c1cc(NC2CCN(Cc3ccncc3)C2)c2ccncc2c1 (stereo not shown) )
5.96

# get_value(readout='pIC50', item= Clc1ccccc1CN1CCCC(Nc2cccc3cnccc23)C1 (stereo not shown) )
6.68

# get_value(readout='pIC50', item= O=[N+]([O-])c1cccc(CN2CCC(Nc3cccc4cnccc34)C2)c1 (stereo not shown) )
6.70

# get_value(readout='pIC50', item= Nc1cccc(CN2CCC(Nc3cccc4cnccc34)C2)c1 (stereo not shown) )
6.55

# get_value(readout='pIC50', item= "Nc1cccc(CN2CC[C@@H](Nc3cccc4cnccc34)C2)c1" )
7.64

# get_value(readout='pIC50', item= Fc1cccc(F)c1CN1CCC(Nc2cccc3cnccc23)C1 (stereo not shown) )
7.14

# get_value(readout='pIC50', item= Nc1ccc(CN2CCCC(Nc3cccc4cnccc34)C2)cc1 (stereo not shown) )
6.54

# get_value(readout='pIC50', item= O=[N+]([O-])c1cc(Cl)ccc1CN1CCC(Nc2cccc3cnccc23)C1 (stereo not shown) )
5.89

# get_value(readout='pIC50', item= Clc1ccccc1CN1CCC(Nc2cccc3cnccc23)C1 (stereo not shown) )
7.00

###

Item-by-item account of IC50
Molecular target: Recombinant Rho kinase (fused protein composed of bovine Rho kinase catalytic region and glutathione S-transferase) (Bos taurus, UniProt Q28021)
Construct: fused protein composed of bovine Rho kinase catalytic region and glutathione S-transferase; glutathione S-transferase (GST)
Assay: Rho kinase inhibitory activity (phosphorylation of S6 231-239 substrate with γ32P-ATP)
Conditions: concentration inhibiting substrate phosphorylation by 50%
Give the quantity in nM, number only.

compound="c1cc(NC2CCCN(Cc3ccoc3)C2)c2ccncc2c1 (centres unmarked)" units_text=nM observed_result=110
compound="c1ccc(CN2CCC(Nc3cccc4cnccc34)C2)nc1 (centres unmarked)" units_text=nM observed_result=480
compound="c1ccc(CN2CCCC(Nc3cccc4cnccc34)C2)cc1 (centres unmarked)" units_text=nM observed_result=240
compound="Clc1ccc(CN2CCC(Nc3cccc4cnccc34)C2)cc1 (centres unmarked)" units_text=nM observed_result=66
compound="c1cc(NC2CCCN(Cc3ccsc3)C2)c2ccncc2c1 (centres unmarked)" units_text=nM observed_result=31
compound="Clc1cccc(CN2CCCC(Nc3cccc4cnccc34)C2)c1 (centres unmarked)" units_text=nM observed_result=270
compound="CC(C)c1ccc(CN2CCC(Nc3cccc4cnccc34)C2)cc1 (centres unmarked)" units_text=nM observed_result=200
compound="c1c[nH]c(CN2CCCC(Nc3cccc4cnccc34)C2)c1 (centres unmarked)" units_text=nM observed_result=23

Continue with the next compound.
# get_value(readout='IC50', item= Nc1ccccc1CN1CCC(Nc2cccc3cnccc23)C1 (centres unmarked) )
210

###

Item-by-item account of pIC50
Biological target: Recombinant Rho kinase (fused protein composed of bovine Rho kinase catalytic region and glutathione S-transferase) (Bos taurus, UniProt Q28021)
Construct: fused protein composed of bovine Rho kinase catalytic region and glutathione S-transferase; glutathione S-transferase (GST); made in house; host or cells: insect cells infected with baculovirus
Assay: Rho kinase inhibitory activity (phosphorylation of S6 231-239 substrate with γ32P-ATP)
Assay type: biochemical
Details: concentration inhibiting substrate phosphorylation by 50%
// scale note: pIC50 = -log10(conc_M); give the bare number

Recorded pIC50, per entry:
molecule="Nc1cc(Cl)ccc1CN1CCCC(Nc2cccc3cnccc23)C1 (centres unmarked)" reported_metric=pIC50 observed_result=6.40
molecule="O=[N+]([O-])c1ccccc1CN1CCC(Nc2cccc3cnccc23)C1 (centres unmarked)" reported_metric=pIC50 observed_result=6.24
molecule="Cc1ccc(CN2CCCC(Nc3cccc4cnccc34)C2)cc1 (centres unmarked)" reported_metric=pIC50 observed_result=6.74
molecule="c1csc(CN2CCCC(Nc3cccc4cnccc34)C2)c1 (centres unmarked)" reported_metric=pIC50 observed_result=6.72

Continue with the next molecule.
# get_value(readout='pIC50', item= c1cncc(CN2CCC(Nc3cccc4cnccc34)C2)c1 (centres unmarked) )
6.23

###

Target: Recombinant Rho kinase (fused protein composed of bovine Rho kinase catalytic region and glutathione S-transferase) (Bos taurus, UniProt Q28021)
Construct: fused protein composed of bovine Rho kinase catalytic region and glutathione S-transferase; glutathione S-transferase (GST)
Test: Rho kinase inhibitory activity (phosphorylation of S6 231-239 substrate with γ32P-ATP)
Conditions: concentration inhibiting substrate phosphorylation by 50%
Procedure: This permits the substrate to be labeled with the radioisotope. Thereafter, the substrate was adsorbed to a filter paper. ATP was washed away with a phosphoric acid solution, and the amount of the phosphorylated substrate was then measured with a liquid scintillation counter.
Item-by-item account of pIC50
// scale note: pIC50 = -log10(conc_M); give the bare number

Recorded pIC50, per entry:
compound="Clc1cccc(Cl)c1CN1CCC(Nc2cccc3cnccc23)C1 (stereo not drawn)" observed_result=6.85
compound="Fc1cccc(F)c1CN1CCCC(Nc2cccc3cnccc23)C1 (stereo not drawn)" observed_result=6.64

# get_value(readout='pIC50', item= c1cc(NC2CCCN(Cc3ccncc3)C2)c2ccncc2c1 (stereo not drawn) )
5.82

# get_value(readout='pIC50', item= O=[N+]([O-])c1cc(Cl)ccc1CN1CCCC(Nc2cccc3cnccc23)C1 (stereo not drawn) )
5.64

# get_value(readout='pIC50', item= c1ccc(CN2CCCC(Nc3cccc4cnccc34)C2)nc1 (stereo not drawn) )
5.89

# get_value(readout='pIC50', item= Clc1cccc(CN2CCC(Nc3cccc4cnccc34)C2)c1 (stereo not drawn) )
7.20

# get_value(readout='pIC50', item= Nc1ccccc1CN1CCCC(Nc2cccc3cnccc23)C1 (stereo not drawn) )
6.57

# get_value(readout='pIC50', item= "Nc1cccc(CN2CC[C@H](Nc3cccc4cnccc34)C2)c1" )
6.51

# get_value(readout='pIC50', item= O=[N+]([O-])c1ccc(CN2CCCC(Nc3cccc4cnccc34)C2)cc1 (stereo not drawn) )
5.74
